# TARGET_OR_TEST_SYSTEM: full length (mature) human TSLP, recombinant (human, UniProt Q969D9 29-159, biotinylated in the SPR assay on the SA chip)
# EXPERIMENTAL_PROTOCOL: cell-based or functional assay
MEASURED_ATTRIBUTE: pSTAT5 assay in SW756 cells, Geometric Mean IC50 (nM)

DOM30h-440-63 (other) VL: DIQMTQSPSSLSASVGDRVTITCRASRPIRNWLDWYQQKPGKAPKLLIWGASHLQSGVPSRFSGSGSGTDFTLTISSLQPEDFATYYCMQIGSDPVTFGQGTKVEIKR
2.21

[a] DOM30h-440-53 (other) VL: DIQMTQSPSSLSASVGDRVTITCRASRPIRNWLDWYQQKPGKAPKLLIWGASHLQSGVPSRFSGSGSGTDFTLTISSLQPEDFATYYCLQVGEDPVTFGQGTKVEIKR
[b] DOM30h-440-56 (other) VL: DIQMTQSPSSLSASVGDRVTITCRASRPIRNWLDWYQQKPGKAPKLLIWGASHLQSGVPSRFSGSGSGTDFTLTVSSLQPEDFATYYCMQIGEDPVTFGQGTKVEIKR
[c] DOM30h-440-64 (other) VL: DIQMTQSPSSLSASVGDRVTITCRASRPIRNWLDWYQQKPGKAPKLLIWGASHLQSGVPSRFSGSGSGTDFTLTISSLQPEDFATYYCLQIGEDPVTFGQGTKVEIKR
[d] DOM30h-440-57 (other) VL: DIQMTQSPSSLSASVGDRVTITCRASRPIRNWLDWYQQKPGKAPELLIWGASHLQSGVPSRFSGSGSGTDFTLTISSLQPEDFATYYCMQIGDDPVTFGQGTKVEIKR
Exercise: // ranking: key=pSTAT5 assay in SW756 cells, Geometric Mean IC50, reverse=True I'd appreciate it if you listed the labels in the requested order.
Key: c, a, b, d

The origin of these recorded values is patent US20170260266A1.
